Target: Bcl-2 protein (Recombinant Human Bcl-2 Protein) (Homo sapiens)
Construct: purchased Novus Biologicals NBP2-34889
Sequence (P10415 whole entry): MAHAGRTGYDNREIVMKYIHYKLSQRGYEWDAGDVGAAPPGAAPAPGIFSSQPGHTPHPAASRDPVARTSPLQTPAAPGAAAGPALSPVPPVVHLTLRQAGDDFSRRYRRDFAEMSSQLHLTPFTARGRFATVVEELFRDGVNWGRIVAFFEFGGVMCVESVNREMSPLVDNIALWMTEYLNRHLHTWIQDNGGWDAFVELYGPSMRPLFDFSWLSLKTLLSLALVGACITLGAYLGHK
Test: AS-MS evaluation of binding of the Example 4 mixture library (1200 compounds/well) to Bcl-2, ASMS ratio (%)
Conditions: AS-MS, Example 4 mixture library, Bcl-2, replicate n = 1
Parameter: ASMS ratio (%) n = 1. Scope: all listed entries.

{"columns": ["molecule", "target.system", "ASMS ratio (%) n = 1"],
 "data": [
  ["CCOc1cncc(-c2csc(C(=O)N3CCN(c4ccc(C(=O)NS(=O)(=O)CCC(F)(F)F)nn4)CC3)c2)c1 [Compound B2N002-01]", "Bcl-2 protein (Recombinant Human Bcl-2 Protein) (Homo sapiens)", 0.0],
  ["CCOc1cccc(-c2ccc(C(=O)N3CCN(c4ccc(C(=O)NS(=O)(=O)CCC(F)(F)F)nn4)CC3)c3ccccc23)c1 [Compound B2N013-01]", "Bcl-2 protein (Recombinant Human Bcl-2 Protein) (Homo sapiens)", 0.0],
  ["CCOc1cccc(-c2ccc(CN3CCN(c4ccc(C(=O)NS(=O)(=O)CCC(F)(F)F)cc4)CC3)cc2C)c1 [Compound B2N047-01]", "Bcl-2 protein (Recombinant Human Bcl-2 Protein) (Homo sapiens)", 0.0]
]}

====

ASMS ratio (%) n = 1: recorded values
Biological target: Bcl-2 protein (Recombinant Human Bcl-2 Protein) (Homo sapiens)
Construct: purchased Novus Biologicals NBP2-34889
Assay: AS-MS evaluation of binding of the Example 4 mixture library (1200 compounds/well) to Bcl-2, ASMS ratio (%)
Conditions: replicate n = 1; mixture library; value belongs to the MS peak assigned to the compound
measured.attribute: ASMS ratio (%) n = 1

{"columns": ["molecule", "target.system", "measured.attribute", "meas.value"],
 "data": [
  ["CCOc1cncc(-c2ccc(C(=O)N3CCN(c4ccc(C(=O)NS(=O)(=O)C(C)(C)C)nn4)CC3)cc2F)c1 [Compound B2L006-01]", "Bcl-2 protein (Recombinant Human Bcl-2 Protein) (Homo sapiens)", "ASMS ratio (%) n = 1", "0.0%"],
  ["CCOc1cncc(-c2ccc(CN3CCN(c4ccc(C(=O)NS(C)(=O)=O)nn4)CC3)c(CC)c2)c1 [Compound B2I076-01]", "Bcl-2 protein (Recombinant Human Bcl-2 Protein) (Homo sapiens)", "ASMS ratio (%) n = 1", "0.2%"],
  ["CCOc1cncc(-c2cc(CN3CCN(c4ccc(C(=O)NS(C)(=O)=O)cc4)CC3)cc(OC(C)C)c2)c1 [Compound B2I058-01]", "Bcl-2 protein (Recombinant Human Bcl-2 Protein) (Homo sapiens)", "ASMS ratio (%) n = 1", "0.0%"],
  ["CCOc1cccc(-c2cc(CN3CCN(c4ccc(C(=O)NS(C)(=O)=O)cc4)CC3)cc(OC(C)C)c2)c1 [Compound B2I057-01]", "Bcl-2 protein (Recombinant Human Bcl-2 Protein) (Homo sapiens)", "ASMS ratio (%) n = 1", "0.0%"],
  ["CCOc1cccc(-c2cc(C(=O)N3CCN(c4ccc(C(=O)NS(=O)(=O)C(C)(C)C)cc4)CC3)cc(C(F)(F)F)c2)c1 [Compound B2L039-01]", "Bcl-2 protein (Recombinant Human Bcl-2 Protein) (Homo sapiens)", "ASMS ratio (%) n = 1", "0.0%"],
  ["CCOc1cncc(-c2csc(C(=O)N3CCN(c4ccc(C(=O)NS(=O)(=O)C(C)(C)C)cc4)CC3)c2)c1 [Compound B2L024-01]", "Bcl-2 protein (Recombinant Human Bcl-2 Protein) (Homo sapiens)", "ASMS ratio (%) n = 1", "0.0%"]
]}
